target: P-gp (Homo sapiens, UniProt P08183); assay: Bidirectional transport assay of AR extract (seven components quantified); format: in vitro ADME; settings: dog, MDCK-MDR1, AR Extract Group, n = 3, read-out: ER (efflux ratio)
Sequence (P08183 whole entry): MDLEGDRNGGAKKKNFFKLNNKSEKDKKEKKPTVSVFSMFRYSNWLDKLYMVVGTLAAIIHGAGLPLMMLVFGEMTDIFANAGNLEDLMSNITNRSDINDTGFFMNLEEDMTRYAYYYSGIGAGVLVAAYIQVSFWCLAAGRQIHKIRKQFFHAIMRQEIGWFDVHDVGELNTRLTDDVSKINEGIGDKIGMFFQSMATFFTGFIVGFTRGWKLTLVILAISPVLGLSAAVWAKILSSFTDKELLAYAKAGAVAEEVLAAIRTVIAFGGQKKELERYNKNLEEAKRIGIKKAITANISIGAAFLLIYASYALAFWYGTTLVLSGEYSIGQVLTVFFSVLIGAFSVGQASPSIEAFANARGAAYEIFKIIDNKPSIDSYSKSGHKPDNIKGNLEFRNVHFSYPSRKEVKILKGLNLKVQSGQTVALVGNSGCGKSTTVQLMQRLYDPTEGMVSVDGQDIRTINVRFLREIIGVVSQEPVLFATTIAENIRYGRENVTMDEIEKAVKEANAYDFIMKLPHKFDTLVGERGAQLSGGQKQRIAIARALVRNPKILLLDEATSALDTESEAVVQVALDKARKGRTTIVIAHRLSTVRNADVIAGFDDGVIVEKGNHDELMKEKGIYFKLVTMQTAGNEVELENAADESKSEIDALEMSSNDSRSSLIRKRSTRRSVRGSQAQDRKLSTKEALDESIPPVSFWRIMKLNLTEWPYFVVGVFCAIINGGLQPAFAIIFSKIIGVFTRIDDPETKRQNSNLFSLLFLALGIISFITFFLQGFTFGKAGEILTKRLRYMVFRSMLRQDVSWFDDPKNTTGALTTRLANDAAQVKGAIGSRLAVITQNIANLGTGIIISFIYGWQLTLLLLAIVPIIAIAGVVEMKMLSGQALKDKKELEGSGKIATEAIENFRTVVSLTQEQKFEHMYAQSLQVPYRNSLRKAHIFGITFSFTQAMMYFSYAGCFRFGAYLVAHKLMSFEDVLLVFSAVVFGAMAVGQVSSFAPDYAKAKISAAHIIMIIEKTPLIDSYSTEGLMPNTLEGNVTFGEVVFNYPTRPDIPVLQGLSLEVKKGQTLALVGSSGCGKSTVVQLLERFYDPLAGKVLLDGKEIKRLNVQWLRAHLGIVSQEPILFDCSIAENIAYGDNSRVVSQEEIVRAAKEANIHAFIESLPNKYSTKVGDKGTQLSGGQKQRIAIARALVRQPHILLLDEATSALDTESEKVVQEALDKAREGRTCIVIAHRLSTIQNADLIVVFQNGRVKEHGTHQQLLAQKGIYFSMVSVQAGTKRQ
Quick reference: efflux ratio at 2 h of the listed items.
metric_name: efflux ratio at 2 h

• C[C@H]1CC[C@@]2(OC1)O[C@H]1C[C@H]3[C@@H]4CC[C@@H]5C[C@@H](O[C@@H]6O[C@H](CO)[C@H](O)[C@H](O)[C@H]6O[C@@H]6O[C@H](CO)[C@@H](O)[C@H](O)[C@H]6O)CC[C@]5(C)[C@H]4CC[C@]3(C)[C@H]1[C@@H]2C [TAIII, timosaponin AIII] = 0.63
• C[C@@H](CC[C@@]1(O)O[C@H]2C[C@H]3[C@@H]4CC[C@@H]5C[C@@H](O[C@@H]6O[C@H](CO)[C@H](O)[C@H](O)[C@H]6O[C@@H]6O[C@H](CO)[C@@H](O)[C@H](O)[C@H]6O)CC[C@]5(C)[C@H]4CC[C@]3(C)[C@H]2[C@@H]1C)CO[C@@H]1O[C@H](CO)[C@@H](O)[C@H](O)[C@H]1O [TBII, timosaponin BII] = 0.83
• O=c1c2cc(O)c(O)cc2oc2cc(O)c([C@@H]3O[C@H](CO)[C@@H](O)[C@H](O)[C@H]3O)c(O)c12 [MGF, mangiferin] = 0.48
• O=c1c2cc(O)c(O)cc2oc2c([C@@H]3O[C@H](CO)[C@@H](O)[C@H](O)[C@H]3O)c(O)cc(O)c12 [IMGF, isomangiferin] = 0.91
• O=c1c2cc(O[C@@H]3O[C@H](CO)[C@@H](O)[C@H](O)[C@H]3O)c(O)cc2oc2cc(O)c([C@@H]3O[C@H](CO)[C@@H](O)[C@H](O)[C@H]3O)c(O)c12 [NMGF, neomangiferin] = 0.67
